TEST DETAILS: compound effects on hepatocellular carcinoma cell viability – HepG2, calcein-AM fluorescence, 48 h, basal, profiling panel (AID 1164); further: test concentration not given here
EXPERIMENTAL SETUP: higher = more signal
For each of the compounds below, state its z-score.

{"COMPOUND": "[N-]=[N+]=Nc1ccccc1C[C@@]1(C(=O)N2CCCCC2)N=C(c2ccc(OCCCO)cc2)O[C@@H]1c1ccccc1", "ENDPOINT RESULT": 1.02}
{"COMPOUND": "C=CC[C@@]1(C(=O)N2CCCCC2)N=C(c2ccc(OCCCO)cc2)O[C@@H]1c1ccccc1N=[N+]=[N-]", "ENDPOINT RESULT": -0.441}

# batch: return z-score for each of the 2 compounds below
1. CN1C(=O)C2C=CC(C(O)c3ccccc3)N(N3CCCCC3)C2C1=O (stereo unspecified)
2. O=C1O[C@H](c2ccccc2)[C@H](c2ccccc2)N2[C@H]1[C@@H](C(=O)NC[C@H](O)c1ccccc1)[C@]1(C(=O)Nc3ccc(C#CC4=CCCCC4)cc31)[C@H]2c1ccccc1OCCO

-0.0624
-3.88

# batch: return z-score for each of the 4 compounds below
1. O=C1O[C@H](c2ccccc2)[C@H](c2ccccc2)N2[C@H]1[C@@H](C(=O)NC[C@H](O)c1ccccc1)[C@]1(C(=O)Nc3ccccc31)[C@H]2c1ccc(O)cc1
2. CCCCCCc1nc(-c2ccc(-c3ccc(Cl)c(Cl)c3)o2)c(C)c2c1[Si](C(C)C)(C(C)C)OC2
3. C=CCOC(=O)[C@H]1[C@@H]2C(=O)O[C@@H](c3ccccc3)[C@@H](c3ccccc3)N2[C@@H](c2ccc(OCCOC(=O)[C@H]3C[C@H]4C(=O)N[C@@H](CCCCN(C)C)C(=O)N4[C@H]3c3cccc(OCCO)c3)cc2)[C@]12C(=O)Nc1ccc(I)cc12
4. C=CCN1Cc2ccccc2[C@@H]2OC(c3ccc(OCCCO)cc3)=N[C@]2(CCS(=O)(=O)c2ccccc2)C1=O

1: -0.454; 2: -1.55; 3: 1.22; 4: 0.574

# batch: return z-score for each of the 3 compounds below
1. CC(C)NC(=O)[C@@H]1c2ccccc2C(=O)N(C(C)C)[C@H]1c1ccc(CO)cc1
2. O=C1O[C@@H](c2ccccc2)[C@@H](c2ccccc2)N2[C@@H](c3ccc(OCCO)cc3)[C@]3(C(=O)Nc4ccc(C#CC5=CCCCC5)cc43)[C@@H](C(=O)N3CCCCCCC3)[C@H]12
3. COc1ccc(C(O)C2C=CC3C(=O)N(C)C(=O)C3N2N(c2ccccc2)c2ccccc2)c2ccccc12 (stereo unspecified)

1. 1.8
2. 1.1
3. 0.943
